Target: T1, CLDN6 endogenously expressed by human cancer cell lines (ARK2, OVCA429) (human, UniProt P56747 1-220)
T1 construct: Untagged endogenous protein; also called Endogenous CLDN6+
T1 sequence: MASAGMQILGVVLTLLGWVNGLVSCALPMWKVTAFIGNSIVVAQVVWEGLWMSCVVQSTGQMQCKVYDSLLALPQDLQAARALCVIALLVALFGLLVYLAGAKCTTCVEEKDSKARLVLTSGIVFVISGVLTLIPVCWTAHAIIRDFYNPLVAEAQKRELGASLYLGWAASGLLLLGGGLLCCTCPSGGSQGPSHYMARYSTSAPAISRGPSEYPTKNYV
Experiment: FACS, AF647-labelled mAb, ARK2 cells

| Binder | Units Symbol | EC50 |
| --- | --- | --- |
| AB7 (antibody, V domains shown, Labelled with Alexa Fluor 647 NHS ester for FACS) VH: EVQLQQSGPELVKPGASMKISCKASGYSFTGYTMNWVKQSHGKNLEWIGLINPYNGGTNYNQKFKGKATLTVDKSSSTAYMELLSLTSEDSAVYYCARGVYDYDGFTYWGQGTLVTVSA VL: QIVLTQSPAIMSASLGDRVTMTCTASSSVSSSYLHWYQQKPGSSPKLWIYSTSNLASGVPARFSGSGSGTSYSLTISSMEAEDAATYYCHQYHRSPPTFGSGTKLEIK | µM | 0.353 |
| AB6 (antibody, V domains shown, Labelled with Alexa Fluor 647 NHS ester for FACS) VH: DVQLQESGPGLVKSSQSLSLTCSVTGYSITSGYYWKWIRQFPGNKLEWMGYISYDGGINYNPSLKNRISITRDTSKNQFFLKLNSVTTEDTAKYYCARFGKGAMDYWGQGTSVTVSS VL: AIVMFQSPSSLVVSAGEKVTMSCKSSQSLLNSRTRKNYLAWYQQKPGQSPKLLIYWASTRESGVPDRFTGSGSGTDFTLTISSVQAEDLAVYYCKQSYYLYTFGGGTKLEIK | µM | 0.765 |
| AB2 (antibody, V domains shown, Labelled with Alexa Fluor 647 NHS ester for FACS) VH: EVKLEESGGGLVQPGGSMKLSCVASGFTFSDYWMNWVRQSPEKGLEWVAQIRLKSDNYATHYAESVKGRFTISRDDSKRSVYLQMNNLRAEDTGTYYCNDGPPSGCWGQGTTLIVSS VL: DIQMTQSPASLSASVGETVTITCRISENIYSYLAWYQQKQGKSPQLLVYNAKILVEGVPSRFSGSGSGTQFSLKINSLQPEDFGNYYCQHHYTVPWTFGGGTKLEIK | µM | 1.36 |
| AB9 (antibody, V domains shown, Labelled with Alexa Fluor 647 NHS ester for FACS) VH: EVQLQQSGPELVKPGASVKMSCKASGYRFTDYNMHWVKQSHGKSLEWIGYINPNNGGTNYNQNFKGKATLTVNKSSSTAYMELRSLTSEDSAAYYCARDYLYFFDCWGQGTTLTVSS VL: DIQMTQSPASQSASLGESVTITCLASQTIGTWLAWYQQKPGKSPQLLIYAAASLADGVPSRFSGSGSGTRFSFKISSLQAEDFVSYYCQQLYSIPRTFGGGTKLEIK | µM | 1.14 |
| AB10 (antibody, V domains shown, Labelled with Alexa Fluor 647 NHS ester for FACS) VH: QIQLVQSGPALKKPGETVKISCKASGYTFTDYSMHWIKQAPGKGLKWMGWISTETGEPTYADGFKGRFDFSLETSADTAYLSINNLTNEDTATYFCTRGLWSSFAYWGQGTLVTVSA VL: DVVMTQTPLSLPVSLGDQASISCRASQSLVHSNGNTYLHWFLQKPGQSPKLLIYKVSNRFSGVPDRFSGSGSRTDFTLKISRVEAEDLGVYFCSQITHVPYTFGGGTKLEIK | µM | 2.14 |
